System: S. aureus ATCC strains and MRSA
Format: cell-based, Staphylococcus aureus
run parameters: Sa20 (MRSA)
measured quantity: Antibiotic susceptibility

For orientation, consider the following solved cases.
molecule	result
CN(C)c1cc(NC(=O)CNC(C)(C)C)c(O)c2c1C[C@H]1C[C@H]3[C@H](N(C)C)C(O)=C(C(N)=O)C(=O)[C@@]3(O)C(O)=C1C2=O [TGC, Tigecycline]	S
Cc1onc(-c2ccccc2)c1C(=O)N[C@@H]1C(=O)N2[C@@H]1SC(C)(C)[C@@H]2C(=O)O [OXA, Oxacillin]	R
C[C@H]1COc2c(N3CCN(C)CC3)c(F)cc3c(=O)c(C(=O)O)cn1c23 [LVX, levofloxacin]	R
CN(C)[C@@H]1C(O)=C(C(N)=O)C(=O)[C@@]2(O)C(O)=C3C(=O)c4c(O)cccc4[C@@](C)(O)[C@H]3C[C@@H]12 [TET, Tetracycline]	S
CC[C@H]1OC(=O)[C@H](C)[C@@H](O[C@H]2C[C@@](C)(OC)[C@@H](O)[C@H](C)O2)[C@H](C)[C@@H](O[C@@H]2O[C@H](C)C[C@H](N(C)C)[C@H]2O)[C@](C)(O)C[C@@H](C)C(=O)[C@H](C)[C@@H](O)[C@]1(C)O [ERY, erythromycin]	R
CCC[C@@H]1C[C@@H](C(=O)N[C@@H]([C@H]2O[C@H](SC)[C@H](O)[C@@H](O)[C@H]2O)[C@H](C)Cl)N(C)C1 [CLI, clindamycin]	S
O=C(O)c1cn(C2CC2)c2cc(N3CCNCC3)c(F)cc2c1=O [Compound 67, Ciprofloxacin]	R
COc1c(N2C[C@@H]3CCCN[C@@H]3C2)c(F)cc2c(=O)c(C(=O)O)cn(C3CC3)c12 [MXF, moxifloxacin]	I
CC(=O)NC[C@H]1CN(c2ccc(N3CCOCC3)c(F)c2)C(=O)O1 [LZD, linezolid]	S
CCCCCCCCCC(=O)N[C@@H](Cc1c[nH]c2ccccc12)C(=O)N[C@H](CC(N)=O)C(=O)N[C@@H](CC(=O)O)C(=O)N[C@@H]1C(=O)NCC(=O)N[C@@H](CCCN)C(=O)N[C@@H](CC(=O)O)C(=O)N[C@H](C)C(=O)N[C@@H](CC(=O)O)C(=O)NCC(=O)N[C@H](CO)C(=O)N[C@@H]([C@H](C)CC(=O)O)C(=O)N[C@@H](CC(=O)c2ccccc2N)C(=O)O[C@@H]1C [DAP, daptomycin]	S

Answer with the recorded Antibiotic susceptibility of O=C1CN(/N=C/c2ccc([N+](=O)[O-])o2)C(=O)N1 [NIT, Nitrofurantoin] only.
S

Answer with the recorded Antibiotic susceptibility of C[C@H]1c2cccc(O)c2C(=O)C2=C(O)[C@]3(O)C(=O)C(C(N)=O)=C(O)[C@@H](N(C)C)[C@@H]3[C@@H](O)[C@@H]21 [DOX, doxycycline] only.
S

----------
System: Staphylococcus epidermidis
Assay type: cell-based
run parameters: Se4 (Staphylococcus epidermidis)
measured quantity: Antibiotic susceptibility

For orientation, consider the following solved cases.
1) COc1c(N2C[C@@H]3CCCN[C@@H]3C2)c(F)cc2c(=O)c(C(=O)O)cn(C3CC3)c12 R
2) CCCCCCCCCC(=O)N[C@@H](Cc1c[nH]c2ccccc12)C(=O)N[C@H](CC(N)=O)C(=O)N[C@@H](CC(=O)O)C(=O)N[C@@H]1C(=O)NCC(=O)N[C@@H](CCCN)C(=O)N[C@@H](CC(=O)O)C(=O)N[C@H](C)C(=O)N[C@@H](CC(=O)O)C(=O)NCC(=O)N[C@H](CO)C(=O)N[C@@H]([C@H](C)CC(=O)O)C(=O)N[C@@H](CC(=O)c2ccccc2N)C(=O)O[C@@H]1C S
3) CC(=O)NC[C@H]1CN(c2ccc(N3CCOCC3)c(F)c2)C(=O)O1 S
4) Cc1onc(-c2ccccc2)c1C(=O)N[C@@H]1C(=O)N2[C@@H]1SC(C)(C)[C@@H]2C(=O)O R

Answer with the recorded Antibiotic susceptibility of `CN(C)[C@@H]1C(O)=C(C(N)=O)C(=O)[C@@]2(O)C(O)=C3C(=O)c4c(O)cccc4[C@@](C)(O)[C@H]3C[C@@H]12` only.
S
